Readings of inhibition at 10 µM for the listed molecules
- experimental.system: CRAC channel (Homo sapiens)
- Construct: endogenous in cells; host or cells: HEK293 (ECACC), untransfected
- Sequence (Q96D31 whole entry): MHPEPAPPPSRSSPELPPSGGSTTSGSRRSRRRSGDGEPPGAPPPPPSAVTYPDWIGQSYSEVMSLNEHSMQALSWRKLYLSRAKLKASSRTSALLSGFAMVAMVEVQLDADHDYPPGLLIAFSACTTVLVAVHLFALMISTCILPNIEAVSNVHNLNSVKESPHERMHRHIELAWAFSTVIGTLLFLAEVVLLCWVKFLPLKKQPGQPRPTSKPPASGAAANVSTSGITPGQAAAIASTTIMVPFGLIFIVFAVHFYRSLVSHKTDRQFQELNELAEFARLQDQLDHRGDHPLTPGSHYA
- protocol.details: HEK Calcium Influx Assay (FLIPR), inhibition of store-operated Ca2+ entry after thapsigargin store depletion
- Format: cell-based
- condition.set: 10 μM compound, HEK293 cells, read-out: % inhib. [@ 10 μM] FLIPR

[
  {
    "molecule": "Cc1cc(S(C)(=O)=O)ncc1N1CCc2[nH]c(C3CCC(F)(F)CC3)cc2C1",
    "experimental.system": "CRAC channel (Homo sapiens)",
    "inhibition at 10 µM": "50 to 70%"
  },
  {
    "molecule": "Cc1cc(C(F)(F)F)ncc1N1CCc2[nH]c(C3CCOCC3)cc2C1",
    "experimental.system": "CRAC channel (Homo sapiens)",
    "inhibition at 10 µM": "> 70%"
  },
  {
    "molecule": "Cc1sc(-c2cccnc2)nc1N1CCc2[nH]c(-c3c(F)cccc3F)c(CO)c2C1",
    "experimental.system": "CRAC channel (Homo sapiens)",
    "inhibition at 10 µM": "> 70%"
  },
  {
    "molecule": "Cc1nc(C#N)ccc1N1CCc2[nH]c(-c3c(F)cccc3F)cc2C1",
    "experimental.system": "CRAC channel (Homo sapiens)",
    "inhibition at 10 µM": "> 70%"
  },
  {
    "molecule": "Cc1cc(Cl)ncc1N1CCc2[nH]c(-c3c(F)cccc3F)cc2C1=O",
    "experimental.system": "CRAC channel (Homo sapiens)",
    "inhibition at 10 µM": "> 70%"
  },
  {
    "molecule": "Cc1sc(S(C)(=O)=O)nc1N1CCc2[nH]c(-c3c(F)cccc3F)cc2C1",
    "experimental.system": "CRAC channel (Homo sapiens)",
    "inhibition at 10 µM": "> 70%"
  },
  {
    "molecule": "Cc1sc(-c2cnccn2)nc1N1CCc2[nH]c(-c3c(F)cccc3F)cc2C1",
    "experimental.system": "CRAC channel (Homo sapiens)",
    "inhibition at 10 µM": "> 70%"
  },
  {
    "molecule": "Cn1nc(N2CCc3[nH]c(-c4c(F)cccc4F)cc3C2)cc1C1CC1",
    "experimental.system": "CRAC channel (Homo sapiens)",
    "inhibition at 10 µM": "> 70%"
  },
  {
    "molecule": "Cc1cc(S(C)(=O)=O)ncc1N1CCc2[nH]c(-c3snnc3C)cc2C1",
    "experimental.system": "CRAC channel (Homo sapiens)",
    "inhibition at 10 µM": "50 to 70%"
  },
  {
    "molecule": "Cc1cc([S+](C)[O-])ncc1N1CCc2[nH]c(-c3c(F)cccc3F)cc2C1 (centres unmarked)",
    "experimental.system": "CRAC channel (Homo sapiens)",
    "inhibition at 10 µM": "> 70%"
  },
  {
    "molecule": "Cc1cc(S(C)(=O)=O)ncc1N1CCc2[nH]c(C3CCCC3)cc2C1",
    "experimental.system": "CRAC channel (Homo sapiens)",
    "inhibition at 10 µM": "> 70%"
  },
  {
    "molecule": "Cc1cc(S(C)(=O)=O)ncc1N1CCc2[nH]c(-c3cccnc3C)cc2C1",
    "experimental.system": "CRAC channel (Homo sapiens)",
    "inhibition at 10 µM": "> 70%"
  },
  {
    "molecule": "Cc1cc(S(C)(=O)=O)ncc1N1CCc2[nH]c(-c3cncc(F)c3C)cc2C1",
    "experimental.system": "CRAC channel (Homo sapiens)",
    "inhibition at 10 µM": "> 70%"
  },
  {
    "molecule": "Cc1sc(-c2ncco2)nc1N1CCc2[nH]c(-c3c(F)cccc3F)cc2C1",
    "experimental.system": "CRAC channel (Homo sapiens)",
    "inhibition at 10 µM": "> 70%"
  },
  {
    "molecule": "Cc1nc(N2CCc3[nH]c(-c4c(F)cccc4F)cc3C2)ccc1Br",
    "experimental.system": "CRAC channel (Homo sapiens)",
    "inhibition at 10 µM": "< 50%"
  },
  {
    "molecule": "Cc1cc(Cl)ncc1N1CCc2[nH]c(-c3c(F)cccc3F)cc2C1",
    "experimental.system": "CRAC channel (Homo sapiens)",
    "inhibition at 10 µM": "> 70%"
  },
  {
    "molecule": "Cc1cc(C(F)(F)F)ncc1N1CCc2[nH]c(C3CCCCC3)cc2C1",
    "experimental.system": "CRAC channel (Homo sapiens)",
    "inhibition at 10 µM": "50 to 70%"
  },
  {
    "molecule": "COCc1ccc(N2CCc3[nH]c(-c4c(F)cccc4F)cc3C2)c(C)c1",
    "experimental.system": "CRAC channel (Homo sapiens)",
    "inhibition at 10 µM": "> 70%"
  },
  {
    "molecule": "Cc1cc(Cl)ccc1N1CCc2[nH]c(-c3c(F)cccc3F)cc2C1",
    "experimental.system": "CRAC channel (Homo sapiens)",
    "inhibition at 10 µM": "< 50%"
  },
  {
    "molecule": "COc1cc(OC(F)F)ncc1N1CCc2[nH]c(-c3c(F)cccc3F)cc2C1",
    "experimental.system": "CRAC channel (Homo sapiens)",
    "inhibition at 10 µM": "> 70%"
  },
  {
    "molecule": "CNS(=O)(=O)c1ccc(N2CCc3[nH]c(-c4cnc(C)cc4C)cc3C2)c(C)c1",
    "experimental.system": "CRAC channel (Homo sapiens)",
    "inhibition at 10 µM": "> 70%"
  },
  {
    "molecule": "Cc1cc(N(C)S(C)(=O)=O)ccc1N1CCc2[nH]c(-c3c(F)cccc3F)cc2C1",
    "experimental.system": "CRAC channel (Homo sapiens)",
    "inhibition at 10 µM": "< 50%"
  },
  {
    "molecule": "Cc1sccc1N1CCc2[nH]c(-c3c(F)cccc3Cl)cc2C1",
    "experimental.system": "CRAC channel (Homo sapiens)",
    "inhibition at 10 µM": "> 70%"
  },
  {
    "molecule": "Cc1c(F)cncc1N1CCc2[nH]c(-c3c(F)cccc3F)cc2C1",
    "experimental.system": "CRAC channel (Homo sapiens)",
    "inhibition at 10 µM": "> 70%"
  },
  {
    "molecule": "Cc1ccc(Cl)cc1N1CCc2[nH]c(-c3c(F)cccc3Cl)cc2C1",
    "experimental.system": "CRAC channel (Homo sapiens)",
    "inhibition at 10 µM": "< 50%"
  },
  {
    "molecule": "Cc1sc(C2CC2)nc1N1CCc2[nH]c(-c3c(F)cccc3F)cc2C1",
    "experimental.system": "CRAC channel (Homo sapiens)",
    "inhibition at 10 µM": "> 70%"
  },
  {
    "molecule": "Cc1cc(C#N)cnc1N1CCc2[nH]c(C3CCCCC3)cc2C1",
    "experimental.system": "CRAC channel (Homo sapiens)",
    "inhibition at 10 µM": "> 70%"
  },
  {
    "molecule": "COc1ccc(OC)c(N2CCc3[nH]c(-c4c(F)cccc4F)cc3C2)c1",
    "experimental.system": "CRAC channel (Homo sapiens)",
    "inhibition at 10 µM": "> 70%"
  },
  {
    "molecule": "Cc1sccc1N1CCc2[nH]c(-c3c(F)cccc3Cl)cc2C1=O",
    "experimental.system": "CRAC channel (Homo sapiens)",
    "inhibition at 10 µM": "> 70%"
  },
  {
    "molecule": "Cc1ccccc1N1CCc2[nH]c(-c3c(F)cccc3F)cc2C1",
    "experimental.system": "CRAC channel (Homo sapiens)",
    "inhibition at 10 µM": "> 70%"
  },
  {
    "molecule": "Cc1sc(-c2cccnc2)nc1N1CCc2[nH]c(-c3c(F)cccc3F)cc2C1=O",
    "experimental.system": "CRAC channel (Homo sapiens)",
    "inhibition at 10 µM": "50 to 70%"
  },
  {
    "molecule": "Cc1cc(S(C)(=O)=O)ncc1N1CCc2[nH]c(C3CCCOC3)cc2C1 (centres unmarked)",
    "experimental.system": "CRAC channel (Homo sapiens)",
    "inhibition at 10 µM": "< 50%"
  },
  {
    "molecule": "COC(=O)c1ccc(N2CCc3[nH]c(-c4c(F)cccc4F)cc3C2)c(C)c1",
    "experimental.system": "CRAC channel (Homo sapiens)",
    "inhibition at 10 µM": "< 50%"
  },
  {
    "molecule": "Cc1cc(C(=O)N(C)C)ccc1N1CCc2[nH]c(-c3c(F)cccc3F)cc2C1",
    "experimental.system": "CRAC channel (Homo sapiens)",
    "inhibition at 10 µM": "> 70%"
  },
  {
    "molecule": "Cc1cc(S(=O)(=O)N2CCOCC2)ccc1N1CCc2[nH]c(-c3c(F)cccc3F)cc2C1",
    "experimental.system": "CRAC channel (Homo sapiens)",
    "inhibition at 10 µM": "> 70%"
  }
]
